system: MDCK; experiment: Cytotoxicity against MDCK cells after 72 hrs by MTT assay; format: cell-based; details: Canis lupus familiaris
Quantity Kind: IC50

Example entries begin here.
>>> df
                             smiles_entry  meas_value
0          Cc1cc(Cl)n2nc3nc4ccccc4cc3c2n1     19.7 µM
1    Cc1cc(N2CCOCC2)n2nc3nc4ccccc4cc3c2n1    > 100 µM
2    Cc1cc(NCCN(C)C)n2nc3nc4ccccc4cc3c2n1    > 100 µM
3  CCN(CC)CCNc1cc(C)nc2c3cc4ccccc4nc3nn12     41.6 µM

[Q] Can you look up the measured IC50 of Cc1cc(=O)n2nc3nc4ccccc4cc3c2[nH]1 for me?
[A] > 100 µM

Origin of values: ChEMBL document CHEMBL3393007
